Entries and their measured apparent KD of K4 kissing-loop reporter follow.
# Test system: K4 kissing-loop RNA reporter;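 further: bound reporter read as fluorescence of individual clusters on recovered sequencing chips by microscopy, with normalized cluster intensities fitted with a binding model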
# assay_remarks: apparent KD of K4 kissing-loop reporter; higher = weaker reporter binding
# protocol_conditions: Eterna round: R107; input ligand: theophylline 20 uM
Quick note: give the figure in nM, leave out the unit.

Take a look at these entries with their results.
{"columns": ["sequence", "apparent KD of K4 kissing-loop reporter / nM"],
 "data": [
  ["AUAAACUUGCAGUGAUGUUGCAAGUGAGACUAGGAUAUCAGGAAGCUGAGAAGGAGUCAUCUCCUUCAAACAUCACUAUGAAGGA [whbob_SS_FMNA__2th178]", 232],
  ["AUACGUUUAAGUGAUACCAGACUGGUGAGUGAUGUUUACCAAUAAAUUAAAUUAUUAGCUGUCCCUUGGCAGCACAGUUUAUUUA [JR_ExcTheophyB_Sub005]", 323]
]}

Then there is this sequence:
Hey, K4 kissing-loop RNA reporter data for UCGGACCCUGGAGGAUAUGAGUCUAGUGAUGUUAGGCGGUCCAUGCGCGUGGCGCGUUAUGCCCUUUUAGAAGGCCAGGGUCCGA [#2 Exclusion - FMN B Attempt #15 (HarryS)] : apparent KD of K4 kissing-loop reporter came out at 90.7

// data source = the supplement of paper PMC9170038
